# ASSAY TARGET: Dihydrofolate reductase (Homo sapiens, UniProt P00374)
# Sequence (P00374 whole entry): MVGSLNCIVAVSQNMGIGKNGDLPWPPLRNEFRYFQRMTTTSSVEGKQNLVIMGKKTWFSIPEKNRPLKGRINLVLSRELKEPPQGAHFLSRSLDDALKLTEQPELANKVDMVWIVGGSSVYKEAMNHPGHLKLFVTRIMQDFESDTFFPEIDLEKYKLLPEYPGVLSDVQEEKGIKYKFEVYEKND
MEASURED QUANTITY: log10(IC50) (log10 of the value in nM)
Friendly reminder: values = log10 of IC50, unit nM.

C=CCNc1ccc2nc(SCC=C)n(Cc3ccccc3)c(=O)c2c1 ... 3.00
C=CCSc1nc2ccc(N(CC=C)CC=C)cc2c(=O)n1Cc1ccccc1 ... 2.95
CSc1nc2ccc(N(C/C=C/c3ccccc3)C/C=C/c3ccccc3)cc2c(=O)n1Cc1ccccc1 ... 2.90
C=CCSc1nc2ccc(N(C/C=C/c3ccccc3)C/C=C/c3ccccc3)cc2c(=O)n1Cc1ccccc1 ... 2.85
O=C(/C=C/c1ccccc1)Nc1ccc2nc(SC/C=C/c3ccccc3)n(Cc3ccccc3)c(=O)c2c1 ... 2.70
Nc1ccc2nc(SC/C=C/c3ccccc3)n(Cc3ccccc3)c(=O)c2c1 ... 3.78
CC(=O)NS(=O)(=O)c1ccc(N)cc1 [SULFACETAMIDE] ... 4.26
C=CCSc1nc2ccc(NC(=O)/C=C/c3ccccc3)cc2c(=O)n1Cc1ccccc1 ... 2.70

*Q* # query: log10(IC50) | item `O=c1c2cc([N+](=O)[O-])ccc2nc(SC/C=C/c2ccccc2)n1Cc1ccccc1` | system: Dihydrofolate reductase (Homo sapiens, UniProt P00374)
*A* 3.48

*Q* # query: log10(IC50) | item `C=CCSc1nc2ccc(NC/C=C/c3ccccc3)cc2c(=O)n1Cc1ccccc1` | system: Dihydrofolate reductase (Homo sapiens, UniProt P00374)
*A* 3.48

*Q* # query: log10(IC50) | item `C=CCNc1ccc2nc(SC)n(Cc3ccccc3)c(=O)c2c1` | system: Dihydrofolate reductase (Homo sapiens, UniProt P00374)
*A* 2.90

*Q* # query: log10(IC50) | item `C=CC(=O)Nc1ccc2nc(SC/C=C/c3ccccc3)n(Cc3ccccc3)c(=O)c2c1` | system: Dihydrofolate reductase (Homo sapiens, UniProt P00374)
*A* 3.30

*Q* # query: log10(IC50) | item `C=CCN(C)c1ccc2nc(SC)n(Cc3ccccc3)c(=O)c2c1` | system: Dihydrofolate reductase (Homo sapiens, UniProt P00374)
*A* 3.30

*Q* # query: log10(IC50) | item `Cc1ccc2nc(SC/C=C/c3ccccc3)n(Cc3ccccc3)c(=O)c2c1` | system: Dihydrofolate reductase (Homo sapiens, UniProt P00374)
*A* 3.00

----------
# ASSAY TARGET: Dihydrofolate reductase (Bos taurus)
# Sequence (P00376 whole entry): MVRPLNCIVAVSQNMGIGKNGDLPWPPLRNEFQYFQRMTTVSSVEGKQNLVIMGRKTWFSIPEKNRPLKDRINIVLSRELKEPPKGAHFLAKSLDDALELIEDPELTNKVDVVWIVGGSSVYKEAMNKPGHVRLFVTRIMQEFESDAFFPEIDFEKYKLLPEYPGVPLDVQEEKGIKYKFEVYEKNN
MEASURED QUANTITY: pIC50
Reminder that pIC50 is minus the log10 of a molar concentration.

Cc1ccc2nc(SCc3ccccc3)n(Cc3ccccc3)c(=O)c2c1 ... 5.00
C=CCSc1nc2ccc(NC(=O)C=C)cc2c(=O)n1Cc1ccccc1 ... 5.00
CCSc1nc2ccc([N+](=O)[O-])cc2c(=O)n1Cc1ccccc1 ... 5.00
Nc1ccc2ncn(Cc3ccccc3)c(=O)c2c1 ... 4.40
Cc1ccc2nc(SC/C=C/c3ccccc3)n(Cc3ccccc3)c(=O)c2c1 ... 6.30
C=CCSc1nc2ccc(N(C/C=C/c3ccccc3)C/C=C/c3ccccc3)cc2c(=O)n1Cc1ccccc1 ... 6.30

*Q* For the compound shown here, `C=CCSc1nc2ccc(N(CC=C)CC=C)cc2c(=O)n1Cc1ccccc1` , give the reported pIC50.
*A* 6.40

*Q* For the compound shown here, `Nc1ccc2nc(SC/C=C/c3ccccc3)n(Cc3ccccc3)c(=O)c2c1` , give the reported pIC50.
*A* 5.10

*Q* For the compound shown here, `CCSc1nc2ccc(C)cc2c(=O)n1Cc1ccccc1` , give the reported pIC50.
*A* 4.46

----------
Quick reference for log10(IC50) among some molecules
# ASSAY TARGET: Dihydrofolate reductase (Bos taurus, UniProt P00376)
Friendly reminder: values = log10 of IC50, unit µM.

Answered examples (2):
C=CCn1c(SSc2nc(=O)c3cc([N+](=O)[O-])ccc3n2CC=C)nc(=O)c2cc([N+](=O)[O-])ccc21 ... 1.00
C=CCNc1ccc2nc(SCC=C)n(Cc3ccccc3)c(=O)c2c1 ... -0.10

*Q* # query: log10(IC50) | item `O=c1c2cc([N+](=O)[O-])ccc2nc(SC/C=C/c2ccccc2)n1Cc1ccccc1` | system: Dihydrofolate reductase (Bos taurus, UniProt P00376)
*A* 0.70

*Q* # query: log10(IC50) | item `C=CC(=O)Nc1ccc2nc(SC)n(Cc3ccccc3)c(=O)c2c1` | system: Dihydrofolate reductase (Bos taurus, UniProt P00376)
*A* 1.70

*Q* # query: log10(IC50) | item `C=CCSc1nc2ccc(NC/C=C/c3ccccc3)cc2c(=O)n1Cc1ccccc1` | system: Dihydrofolate reductase (Bos taurus, UniProt P00376)
*A* 0.70

*Q* # query: log10(IC50) | item CC(=O)NS(=O)(=O)c1ccc(N)cc1 [SULFACETAMIDE] | system: Dihydrofolate reductase (Bos taurus, UniProt P00376)
*A* 1.34

*Q* # query: log10(IC50) | item `CSc1nc2ccc(NC/C=C/c3ccccc3)cc2c(=O)n1Cc1ccccc1` | system: Dihydrofolate reductase (Bos taurus, UniProt P00376)
*A* -0.30

*Q* # query: log10(IC50) | item `O=c1c2cc([N+](=O)[O-])ccc2nc(S)n1Cc1ccccc1` | system: Dihydrofolate reductase (Bos taurus, UniProt P00376)
*A* 1.18

*Q* # query: log10(IC50) | item `CSc1nc2ccc(N)cc2c(=O)n1Cc1ccccc1` | system: Dihydrofolate reductase (Bos taurus, UniProt P00376)
*A* 1.00

*Q* # query: log10(IC50) | item `C=CCSc1nc2ccc(NC(=O)/C=C/c3ccccc3)cc2c(=O)n1Cc1ccccc1` | system: Dihydrofolate reductase (Bos taurus, UniProt P00376)
*A* -0.15

*Q* # query: log10(IC50) | item `C=CCSc1nc2ccc([N+](=O)[O-])cc2c(=O)n1Cc1ccccc1` | system: Dihydrofolate reductase (Bos taurus, UniProt P00376)
*A* 0.48

*Q* # query: log10(IC50) | item `C=CCSc1nc2ccc(C)cc2c(=O)n1Cc1ccccc1` | system: Dihydrofolate reductase (Bos taurus, UniProt P00376)
*A* 0.30

*Q* # query: log10(IC50) | item `O=C(/C=C/c1ccccc1)Nc1ccc2nc(SC/C=C/c3ccccc3)n(Cc3ccccc3)c(=O)c2c1` | system: Dihydrofolate reductase (Bos taurus, UniProt P00376)
*A* -0.05

The measured values listed here are drawn from ChEMBL document CHEMBL1156232.
